Entries and their measured PBM binding z-score follow.
- Test system: FXR:RXRa (NR concentration 270 nM, RXRa partner concentration 90 nM)
- MEASUREMENT_DESCRIPTION: PBM binding z-score (relative to random genomic background probes); higher = stronger binding; sequences stand for … in GC…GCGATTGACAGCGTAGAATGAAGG
ENDPOINT_NAME: PBM binding z-score

1) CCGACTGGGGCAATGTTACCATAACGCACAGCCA    -0.585
2) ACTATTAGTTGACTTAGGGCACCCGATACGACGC    -0.0668
3) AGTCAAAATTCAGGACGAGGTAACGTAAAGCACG    0.194
4) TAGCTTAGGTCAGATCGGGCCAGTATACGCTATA    2
5) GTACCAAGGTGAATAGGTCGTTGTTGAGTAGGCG    0.827
6) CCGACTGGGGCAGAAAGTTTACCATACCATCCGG    -0.706
7) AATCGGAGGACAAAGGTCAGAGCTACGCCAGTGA    4.21
8) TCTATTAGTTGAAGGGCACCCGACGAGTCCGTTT    0.72
9) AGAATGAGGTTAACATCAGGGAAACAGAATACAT    2.93
10) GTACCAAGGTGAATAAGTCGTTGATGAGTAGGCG    0.544
11) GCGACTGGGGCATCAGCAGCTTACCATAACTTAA    -0.818
12) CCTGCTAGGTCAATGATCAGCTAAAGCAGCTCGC    2.71
13) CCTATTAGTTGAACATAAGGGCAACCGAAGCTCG    0.402
14) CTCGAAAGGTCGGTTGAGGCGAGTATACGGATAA    1.49
15) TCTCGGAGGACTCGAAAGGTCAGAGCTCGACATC    1.95
16) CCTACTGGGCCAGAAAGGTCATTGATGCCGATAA    3.9
17) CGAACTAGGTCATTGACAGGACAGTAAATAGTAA    4.05
18) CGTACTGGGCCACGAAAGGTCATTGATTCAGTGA    4.13
19) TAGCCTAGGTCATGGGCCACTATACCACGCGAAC    4.16
20) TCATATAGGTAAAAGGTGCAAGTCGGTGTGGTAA    1.29
21) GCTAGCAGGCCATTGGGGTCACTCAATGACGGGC    2.93
22) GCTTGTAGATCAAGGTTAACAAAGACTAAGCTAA    0.151
23) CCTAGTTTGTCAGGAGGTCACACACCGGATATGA    3.37
24) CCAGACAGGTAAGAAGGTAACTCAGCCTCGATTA    0.251
25) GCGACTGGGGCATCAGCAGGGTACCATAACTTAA    -0.653
26) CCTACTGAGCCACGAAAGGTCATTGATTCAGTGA    3.68

* * *

- Tested on: LXRa:RXRa (NR concentration 270 nM, RXRa partner concentration 90 nM)
- MEASUREMENT_DESCRIPTION: PBM binding z-score (relative to random genomic background probes); higher = stronger binding; sequences stand for … in GC…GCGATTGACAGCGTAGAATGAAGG
Entries and their measured PBM binding z-score follow.
ENDPOINT_NAME: PBM binding z-score

1) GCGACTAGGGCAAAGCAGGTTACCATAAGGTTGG    0.121
2) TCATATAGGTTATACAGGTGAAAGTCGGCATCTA    2.32
3) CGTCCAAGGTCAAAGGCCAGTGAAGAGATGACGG    5.28
4) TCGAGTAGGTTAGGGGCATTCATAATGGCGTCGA    0.369
5) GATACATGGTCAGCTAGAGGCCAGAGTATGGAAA    -0.822
6) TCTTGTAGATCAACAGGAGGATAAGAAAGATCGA    0.0206
7) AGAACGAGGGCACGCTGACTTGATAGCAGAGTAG    0.896
8) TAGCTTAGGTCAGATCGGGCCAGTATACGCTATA    1.41
9) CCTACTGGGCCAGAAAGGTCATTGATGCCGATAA    4.7
10) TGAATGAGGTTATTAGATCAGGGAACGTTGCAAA    1.62
11) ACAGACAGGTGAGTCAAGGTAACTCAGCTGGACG    -0.203
12) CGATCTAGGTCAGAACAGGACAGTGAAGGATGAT    0.482
13) GCAGCTAGGTCAGGTTGGTCAGCTAACGGGTACG    0.422
14) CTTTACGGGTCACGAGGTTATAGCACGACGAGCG    5.4
15) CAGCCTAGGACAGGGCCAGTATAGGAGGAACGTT    -0.926
16) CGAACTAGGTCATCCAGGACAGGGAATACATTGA    2.35
17) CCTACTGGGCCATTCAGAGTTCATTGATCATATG    2.71
18) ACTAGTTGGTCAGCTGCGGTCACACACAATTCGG    0.737
19) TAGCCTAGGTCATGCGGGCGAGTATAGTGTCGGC    2.5
20) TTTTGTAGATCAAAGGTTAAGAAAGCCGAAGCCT    2.03
21) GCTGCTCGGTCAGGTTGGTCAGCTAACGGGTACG    -0.331
22) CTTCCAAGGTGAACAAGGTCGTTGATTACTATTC    1.18
23) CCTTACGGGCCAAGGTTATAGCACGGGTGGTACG    0.16
24) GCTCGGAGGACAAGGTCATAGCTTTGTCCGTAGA    3.71
25) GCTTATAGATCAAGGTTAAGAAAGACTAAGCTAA    0.766
26) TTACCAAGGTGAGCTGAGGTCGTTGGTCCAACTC    1.34
27) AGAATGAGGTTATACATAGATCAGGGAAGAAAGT    2.05
28) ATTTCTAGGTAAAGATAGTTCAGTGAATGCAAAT    4.21
29) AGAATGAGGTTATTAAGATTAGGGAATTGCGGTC    1.57
30) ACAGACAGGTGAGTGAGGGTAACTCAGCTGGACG    0.269
31) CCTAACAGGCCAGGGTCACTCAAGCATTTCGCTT    1.86
32) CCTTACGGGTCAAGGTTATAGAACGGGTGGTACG    3.68
33) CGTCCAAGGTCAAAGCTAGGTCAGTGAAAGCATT    5.98
34) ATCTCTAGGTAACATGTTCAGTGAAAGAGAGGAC    0.254
35) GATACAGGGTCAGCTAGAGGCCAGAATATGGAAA    2.63
36) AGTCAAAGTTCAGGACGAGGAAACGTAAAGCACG    3.6
37) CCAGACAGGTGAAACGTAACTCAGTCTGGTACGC    -0.0571
38) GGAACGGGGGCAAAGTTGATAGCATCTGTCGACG    3.32
39) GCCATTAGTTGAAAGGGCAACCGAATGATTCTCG    0.648
40) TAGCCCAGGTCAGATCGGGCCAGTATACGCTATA    1.3
41) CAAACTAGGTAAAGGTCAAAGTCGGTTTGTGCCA    6.21
42) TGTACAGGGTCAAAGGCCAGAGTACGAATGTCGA    4.91
43) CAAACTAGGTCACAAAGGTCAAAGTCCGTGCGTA    6.7
44) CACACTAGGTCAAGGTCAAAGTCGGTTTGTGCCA    6.07
45) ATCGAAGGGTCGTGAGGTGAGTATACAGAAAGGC    1.7
46) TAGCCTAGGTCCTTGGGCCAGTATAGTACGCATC    -1.18
47) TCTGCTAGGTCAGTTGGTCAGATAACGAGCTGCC    0.831
48) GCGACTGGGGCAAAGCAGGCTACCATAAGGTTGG    -0.696
49) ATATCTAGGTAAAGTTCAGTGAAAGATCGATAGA    1.84
50) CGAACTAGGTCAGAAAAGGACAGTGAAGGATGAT    0.723
51) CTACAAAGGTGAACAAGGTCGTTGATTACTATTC    2.94
